Molecular target: C277T/R296P (SEQ ID NO: 476) (Thermotoga maritima, UniProt Q9WXT2, C277T/R296P)
Construct: made in house; host or cells: E. coli
Sequence (Q9WXT2 whole entry C277T/R296P): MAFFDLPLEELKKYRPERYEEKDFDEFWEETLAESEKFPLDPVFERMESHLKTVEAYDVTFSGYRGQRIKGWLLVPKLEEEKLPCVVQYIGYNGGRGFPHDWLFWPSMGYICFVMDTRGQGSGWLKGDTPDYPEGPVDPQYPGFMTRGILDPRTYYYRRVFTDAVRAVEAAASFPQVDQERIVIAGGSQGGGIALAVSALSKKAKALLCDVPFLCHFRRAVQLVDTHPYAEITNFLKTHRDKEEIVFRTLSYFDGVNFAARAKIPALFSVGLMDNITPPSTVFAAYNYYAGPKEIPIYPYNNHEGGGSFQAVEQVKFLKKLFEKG
Type: biochemical
Conditions: 100 mM ester, 60 mM H2O2, 40 ppm enzyme, 95 mM phosphate pH 7.2, 37° C.
Below, each entry is listed with its recorded Maximum Peracetic Acid (PAA) (ppm), C277T/R296P (SEQ ID NO: 476).
Answer with a number only, understood to be in ppm.

Check out these entries, answers already filled in.
CC(=O)OC[C@H]1O[C@@H](OC(C)=O)[C@H](OC(C)=O)[C@@H](OC(C)=O)[C@H]1OC(C)=O [β-D-galactose pentaacetate]	1947
C=CC(COC(C)=O)OC(C)=O (stereo not shown) [3,4-diacetoxy-1-butene]	2478
CC(=O)OC[C@H]1O[C@@H](OC(C)=O)[C@H](OC(C)=O)[C@@H](OC(C)=O)[C@@H]1OC(C)=O [β-D-glucose pentaacetate]	1716
CC(=O)OC[C@H]1O[C@H](OC(C)=O)[C@H](OC(C)=O)[C@@H](OC(C)=O)[C@@H]1OC(C)=O [α-D-glucose pentaacetate]	1678
CC(=O)OC[C@H]1O[C@@H](OC(C)=O)[C@H](OC(C)=O)[C@H]1OC(C)=O [β-D-xylofuranose tetraacetate]	3158
CC(=O)OCC(O)COC(C)=O [Diacetin]	1087
CC(=O)OCCCCCOC(C)=O [1,5-pentanediol diacetate]	364
CC(=O)OC[C@H]1O[C@@H](S)[C@H](OC(C)=O)[C@@H](OC(C)=O)[C@@H]1OC(C)=O [1-thio-β-D glucose-2,3,4,6-tetraacetate]	147

Q: Recall and state the measured Maximum Peracetic Acid (PAA) (ppm), C277T/R296P (SEQ ID NO: 476) for CC(=O)OC[C@H]1O[C@H](OC(C)=O)[C@@H](OC(C)=O)[C@@H](OC(C)=O)[C@@H]1OC(C)=O [α-D-mannopyranose pentaacetate] .
A: 3752

Q: Give the reported Maximum Peracetic Acid (PAA) (ppm), C277T/R296P (SEQ ID NO: 476) for this compound. CC(=O)OC[C@H](OC(C)=O)[C@@H](OC(C)=O)[C@H](OC(C)=O)[C@@H](COC(C)=O)OC(C)=O [Sorbitol hexaacetate]
A: 616

FYI, the data here is from patent US8663616B2.
